target entity: His-tagged human recombinant DDR-2 kinase domain (His-TEV-DDR2 467-855 aa) (Homo sapiens, UniProt Q16832)
Construct: His-TEV-DDR2 467-855 aa
Sequence (Q16832 467-855): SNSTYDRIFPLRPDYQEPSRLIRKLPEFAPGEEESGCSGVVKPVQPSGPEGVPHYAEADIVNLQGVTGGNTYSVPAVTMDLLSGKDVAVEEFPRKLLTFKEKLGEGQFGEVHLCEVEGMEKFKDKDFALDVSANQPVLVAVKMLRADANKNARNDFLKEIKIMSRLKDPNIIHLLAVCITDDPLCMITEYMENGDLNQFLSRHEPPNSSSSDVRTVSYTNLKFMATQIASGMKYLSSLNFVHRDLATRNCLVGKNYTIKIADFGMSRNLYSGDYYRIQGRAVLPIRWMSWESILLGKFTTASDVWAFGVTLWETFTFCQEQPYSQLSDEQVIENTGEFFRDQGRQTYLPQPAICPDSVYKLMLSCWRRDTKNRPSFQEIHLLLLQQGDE
method: Autophosphorylation assay for biochemical activity testing of DDR2 (HTRF)
settings: biochemical DDR2 autophosphorylation
readout kind: IC50 (µM)

CNC(=O)c1cc(Oc2ccc(CNC(=O)Nc3cc(C(F)(F)F)ccc3OCCNC(C)C)cc2)ccn1 [compound 172]
0.14
CNC(=O)c1cc(Oc2ccc(CNC(=O)Nc3cc(Cl)ccc3OC)cc2C)ccn1 [compound 100]
0.12

----------
target entity: HEK293 transfected with human DDR2 (Homo sapiens, UniProt Q16832)
Construct: expressed in transfected cells; host or cells: HEK293 (PLT460F_(DDR2)-P7-1)
Sequence (Q16832 22-855): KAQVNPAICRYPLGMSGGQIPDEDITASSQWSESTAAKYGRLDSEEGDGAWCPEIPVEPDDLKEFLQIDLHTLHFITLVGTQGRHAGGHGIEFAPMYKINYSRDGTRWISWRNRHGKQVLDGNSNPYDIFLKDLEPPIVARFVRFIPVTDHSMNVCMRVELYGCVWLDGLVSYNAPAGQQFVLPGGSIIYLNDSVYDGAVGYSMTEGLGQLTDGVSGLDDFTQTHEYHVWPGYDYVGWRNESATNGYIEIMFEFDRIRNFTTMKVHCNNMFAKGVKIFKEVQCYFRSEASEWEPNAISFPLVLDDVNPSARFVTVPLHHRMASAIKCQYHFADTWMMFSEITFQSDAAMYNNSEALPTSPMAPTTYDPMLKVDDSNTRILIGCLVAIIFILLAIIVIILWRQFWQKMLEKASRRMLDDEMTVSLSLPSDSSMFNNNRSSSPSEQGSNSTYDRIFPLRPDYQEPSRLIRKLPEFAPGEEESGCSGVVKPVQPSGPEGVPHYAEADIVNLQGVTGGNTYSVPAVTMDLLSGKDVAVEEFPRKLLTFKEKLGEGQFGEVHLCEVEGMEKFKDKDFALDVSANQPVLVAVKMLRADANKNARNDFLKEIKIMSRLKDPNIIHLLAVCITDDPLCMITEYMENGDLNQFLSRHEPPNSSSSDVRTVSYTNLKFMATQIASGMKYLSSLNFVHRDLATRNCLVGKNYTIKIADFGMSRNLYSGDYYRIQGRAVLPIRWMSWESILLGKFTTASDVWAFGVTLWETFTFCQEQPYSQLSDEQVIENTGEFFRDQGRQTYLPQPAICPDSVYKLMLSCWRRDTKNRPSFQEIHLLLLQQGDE
method: Phospho-DDR2 cellular assay (collagen II induced DDR2 phosphorylation, ELISA)
Assay type: cell-based
settings: cellular phospho-DDR2; read-out: IC50 [p-DDR2]
readout kind: IC50 (nM)

CNC(=O)c1cc(Oc2ccc(CNC(=O)Nc3cc(C(F)(F)F)ccc3CNC(C)=O)cc2C)ccn1
45

(P) CNC(=O)c1cc(Oc2ccc(CNC(=O)Nc3cccc(C(F)(F)F)c3)cc2F)ccn1
(Q) CNC(=O)c1cc(Oc2ccc(CNC(=O)Nc3cc(OC)c(Cl)cc3OC)cc2)ccn1
Which of the two items, P and Q , has the greater recorded IC50? Write the label of whichever entry you select.
Q

----------
target entity: His-tagged human recombinant DDR-2 kinase domain (His-TEV-DDR2 467-855 aa) (Homo sapiens, UniProt Q16832)
Construct: His-TEV-DDR2 467-855 aa
method: Autophosphorylation assay for biochemical activity testing of DDR2 (HTRF)
settings: biochemical DDR2 autophosphorylation
readout kind: IC50 (µM)

CNCCOc1ccc(S(=O)(=O)C(F)(F)F)cc1NC(=O)NCc1ccc(Oc2ccnc(C(=O)NC)c2)c(C)c1 [compound 189]
0.27
CNC(=O)c1cc(Oc2ccc(CNC(=O)Nc3cc(Cl)ccc3OC)c(C)c2)ccn1 [compound 104]
0.27

----------
target entity: His-tagged human recombinant DDR-2 kinase domain (His-TEV-DDR2 467-855 aa) (Homo sapiens, UniProt Q16832)
Construct: His-TEV-DDR2 467-855 aa
method: Autophosphorylation assay for biochemical activity testing of DDR2 (HTRF)
settings: biochemical DDR2 autophosphorylation
pIC50: −log10 of the molar value.
readout kind: pIC50

Consider the worked cases shown below.
CNC(=O)c1cc(Oc2ccc(CNC(=O)Nc3cc(C)c(Cl)cc3OCCNC(=O)C(F)(F)F)cc2)ccn1
6.18
CNC(=O)c1cc(Oc2ccc(CNC(=O)Nc3ccc(C(=O)OC)cc3OC)cc2)ccn1
5.54
CNC(=O)c1cc(Oc2ccc(CNC(=O)Nc3cc(C(F)(F)F)ccc3OCCN3CCOCC3)cc2)ccn1
7.14

(A) CNC(=O)c1cc(Oc2ccc(CNC(=O)Nc3cc(C)c(Cl)cc3OCCN)cc2C)ccn1
(B) CC(=O)c1cccc(NC(=O)NCc2ccc(Oc3ccncc3)cc2)c1
(C) Cc1cccc(NC(=O)NCc2ccc(Oc3ccncc3)cc2)c1
(D) CNC(=O)c1cc(Oc2ccc(CNC(=O)Nc3cc(C(F)(F)F)ccc3OCC(N)=O)cc2)ccn1
(E) CNC(=O)c1cc(Oc2ccc(CNC(=O)Nc3cc(C(F)(F)F)c(Cl)cc3OCCCN)cc2)ccn1
Endpoint returns the given compounds ordered by ascending pIC50. Output spec: a listing of the labels in the requested order.
B, C, E, D, A
(B: 5.00, C: 6.00, E: 6.23, D: 6.92, A: 7.31)

(I) CNC(=O)c1cc(Oc2ccc(CNC(=O)Nc3cc(Cl)ccc3OC)cc2F)ccn1
(II) CCc1ccc(NC(=O)NCc2ccc(Oc3ccncc3)cc2)cc1
(III) CNC(=O)c1cc(Oc2ccc(CNC(=O)Nc3c(Cl)cncc3Cl)cc2)ccn1
(IV) O=C(NCc1ccc(Oc2ccncc2)cc1)Nc1ccc(Br)c(C(F)(F)F)c1
(V) COc1ccc(Cl)cc1NC(=O)NCc1ccc(Oc2ccncc2)cc1
Order field: pIC50 | Direction: descending (largest first) Output spec: a listing of the labels in the requested order.
I, V, III, IV, II

(P) CNC(=O)c1cc(Oc2ccc(CNC(=O)Nc3cc(C)c(Cl)cc3OC3CCNCC3)cc2)ccn1
(Q) CNC(=O)c1cc(Oc2ccc(CNC(=O)Nc3c(OC)cc(Cl)c(C)c3Cl)cc2)ccn1
(R) Cc1ccc(NC(=O)NCc2ccc(Oc3ccncc3)cc2)cc1Cl
(S) CNC(=O)c1cc(Oc2ccc(CNC(=O)Nc3cc(C(F)(F)F)c(Cl)cc3OCCN3C(=O)c4ccccc4C3=O)cc2)ccn1
(T) CNC(=O)c1cc(Oc2ccc(CNC(=O)Nc3cc(C)c(Cl)cc3OCCN(C)C)cc2)ccn1
Endpoint returns the given compounds ordered by ascending pIC50. Output spec: a listing of the labels in the requested order.
Q, R, S, T, P
(Q: 4.85, R: 6.13, S: 6.36, T: 6.70, P: 7.18)

(P) CNC(=O)c1cc(Oc2ccc(CNC(=O)Nc3cc(C(F)(F)F)ccc3OC)cc2C)ccn1
(Q) CNC(=O)c1cc(Oc2ccc(CNC(=O)Nc3cccnc3Cl)cc2)ccn1
Returns the identifier with the smallest measured pIC50 among P and Q . Write the label of whichever entry you select.
Q
(Q: 4.72, P: 7.30)

(1) COc1cc(Cl)c(C)cc1NC(=O)NCc1ccc(Oc2ccncc2)c(C)c1
(2) O=C(NCc1ccc(Oc2ccncc2)cc1)Nc1cc(Cl)ccc1Cl
Which of the two items, 1 and 2 , has the greater recorded pIC50? Write the label of whichever entry you select.
2
(2: 6.57, 1: 6.11)

----------
target entity: HEK293 transfected with human DDR2 (Homo sapiens)
Construct: expressed in transfected cells; host or cells: HEK293 (PLT460F_(DDR2)-P7-1)
method: Phospho-DDR2 cellular assay (collagen II induced DDR2 phosphorylation, ELISA)
Format: cell-based
settings: cellular phospho-DDR2; read-out: IC50 [p-DDR2]
readout kind: IC50 (nM)

(I) CNCCOc1cc(C)c(Cl)cc1NC(=O)NCc1ccc(Oc2ccnc(C(=O)NC)c2)cc1 [compound 177]
(II) CNC(=O)c1cc(Oc2ccc(CNC(=O)Nc3cc(C)on3)cc2)ccn1 [compound 236]
Returns the identifier with the smallest measured IC50 among I and II . Write the label of whichever entry you select.
I

(I) CNC(=O)c1cc(Oc2ccc(CNC(=O)Nc3cc(Cl)c(C)cc3OCCN3CCNCC3)cc2)ccn1 [compound 179]
(II) CNC(=O)c1cc(Oc2ccc(CNC(=O)Nc3cc(OC)c(OC)c(OC)c3)cc2)ccn1 [compound 80]
(III) CNC(=O)c1cc(Oc2ccc(CNC(=O)Nc3cc(C)c(Cl)cc3OCCN3CCNCC3)cc2C)ccn1 [compound 143]
Endpoint returns the given compounds ordered by ascending IC50. Output spec: a listing of the labels in the requested order.
I, III, II
